# Test system: human cervical cancer (HeLa) cells
# experiment.summary: MTT cytotoxicity assay, HeLa cells
# Assay type: cell-based
# conditions.used: means ± SD (n = 3)
measure: IC50 (μg/mL) HeLa (µg/mL)
Answer in µg/mL, number only, no unit symbol.

compound | tested.system | unit.text | IC50 (μg/mL) HeLa
COC1C(O)C(CO)OC(OC2C(O)C(CO)OC(OC3C(C)OC(OC4C(OC5CCC6(C)C7=CC(O)C89C(=O)OC(C)(CCCC(C)C)C8(O)CCC9(C)C7CCC6C5(C)C)OCC(OS(=O)(=O)O)C4O)C(O)C3O)C2O)C1O.[Na+] (stereo not drawn) [Echinoside A (1), Echinoside A] | human cervical cancer (HeLa) cells | µg/mL | 1.25
C[C@H]1O[C@@H](O[C@H]2[C@H](O[C@H]3CC[C@]4(C)C5=C[C@H](O)C67C(=O)O[C@@](C)(C8CCC(C)(C)O8)[C@@]6(O)CC[C@@]7(C)[C@@H]5CCC4C3(C)C)OC[C@@H](OS(=O)(=O)[O-])[C@@H]2O)[C@H](O)[C@@H](O)[C@@H]1O.[Na+] (stereo partly drawn) [Holothurin B (3), Holothurin B] | human cervical cancer (HeLa) cells | µg/mL | 2.05

For the next question, use this compound.
# input # IC50 (μg/mL) HeLa lookup, item CO[C@@H]1[C@@H](O)[C@H](O[C@@H]2[C@@H](O)[C@H](O[C@H]3[C@H](O)[C@@H](O)[C@H](O[C@H]4[C@H](O[C@H]5CC[C@]6(C)C7=C[C@H](O)[C@]89C(=O)O[C@@](C)(C(O)CCC(C)C)[C@@]8(O)CC[C@@]9(C)[C@@H]7CC[C@H]6C5(C)C)OC[C@@H](OS(=O)(=O)[O-])[C@@H]4O)O[C@@H]3C)O[C@H](CO)[C@H]2O)O[C@H](CO)[C@H]1O.[Na+] (stereo partly drawn) [Holothurin A1 (7), Holothurin A1]
# output 2.84

Source: paper PMC4145316
